- System: Trypanosoma brucei brucei
- protocol: Antitrypanosomal activity against Trypanosoma brucei brucei S427 by resazurin dye based fluorescence assay
- Assay type: functional
Cut-off 300 nM on GI50: below means fulfilled, at or above means not fulfilled.

# record_smiles, answer_label
rows = [
    ("CC[C@@H](C(=O)[C@@H](C)[C@@H](O)[C@H](C)[C@@H]1O[C@@H]([C@@H](CC)C(=O)ONC(=O)c2ccccc2)CC[C@@H]1C)[C@H]1O[C@]2(C=C[C@H](OC(C)=O)[C@]3(CC[C@@](C)([C@H]4CC[C@](O)(CC)[C@H](C)O4)O3)O2)[C@H](C)C[C@@H]1C", "not fulfilled"),
    ("CC[C@@H](C(=O)[C@@H](C)[C@@H](O)[C@H](C)[C@@H]1O[C@@H]([C@@H](CC)C(=O)O)CC[C@@H]1C)[C@H]1O[C@]2(C=C[C@H](OC(=O)OCC(C)(C)C)[C@]3(CC[C@@](C)([C@H]4CC[C@](O)(CC)[C@H](C)O4)O3)O2)[C@H](C)C[C@@H]1C", "not fulfilled"),
    ("CC[C@@H](C(=O)[C@@H](C)[C@@H](O)[C@H](C)[C@@H]1O[C@@H]([C@@H](CC)C(=O)O)CC[C@@H]1C)[C@H]1O[C@]2(C=C[C@H](OC(=O)Nc3ccccc3)[C@]3(CC[C@@](C)([C@H]4CC[C@](O)(CC)[C@H](C)O4)O3)O2)[C@H](C)C[C@@H]1C", "not fulfilled"),
]

# input Is the reported GI50 for CCCCCCCCCC(=O)O[C@H]1C=C[C@]2(O[C@H]([C@@H](CC)C(=O)[C@@H](C)[C@@H](O)[C@H](C)[C@@H]3O[C@@H]([C@@H](CC)C(=O)O)CC[C@@H]3C)[C@@H](C)C[C@H]2C)O[C@@]12CC[C@@](C)([C@H]1CC[C@](O)(CC)[C@H](C)O1)O2 strictly below 300 nM?
# output not fulfilled

# input Is the reported GI50 for CC[C@@H](C(=O)[C@@H](C)[C@@H](O)[C@H](C)[C@@H]1O[C@@H]([C@@H](CC)C(=O)O)CC[C@@H]1C)[C@H]1O[C@]2(C=C[C@H](OC(=O)Oc3ccccc3)[C@]3(CC[C@@](C)([C@H]4CC[C@](O)(CC)[C@H](C)O4)O3)O2)[C@H](C)C[C@@H]1C strictly below 300 nM?
# output fulfilled

# input Is the reported GI50 for CC[C@@H](C(=O)[C@@H](C)[C@@H](O)[C@H](C)[C@@H]1O[C@@H]([C@@H](CC)C(=O)O)CC[C@@H]1C)[C@H]1O[C@]2(C=C[C@H](OC(C)=O)[C@]3(CC[C@@](C)([C@H]4CC[C@](O)(CC)[C@H](C)O4)O3)O2)[C@H](C)C[C@@H]1C strictly below 300 nM?
# output fulfilled

---

- Tested on: Trypanosoma brucei brucei
- protocol: Antitrypanosomal activity against Trypanosoma brucei brucei S427 by resazurin dye based fluorescence assay
- Type: functional
measurement_name: GI50 (nM)
Could you give me the number in nM? Just the number is fine.

Before answering, review these 6 worked examples.
# record_smiles, display_unit, GI50
records = [
    ("C#CCOC(=O)[C@H](CC)[C@H]1CC[C@H](C)[C@H]([C@@H](C)[C@H](O)[C@H](C)C(=O)[C@H](CC)[C@H]2O[C@]3(C=C[C@H](OC(=O)OCC)[C@]4(CC[C@@](C)([C@H]5CC[C@](O)(CC)[C@H](C)O5)O4)O3)[C@H](C)C[C@@H]2C)O1", "nM", 15000),
    ("CCNC(=O)N(CC)C(=O)O[C@H]1C=C[C@]2(O[C@H]([C@@H](CC)C(=O)[C@@H](C)[C@@H](O)[C@H](C)[C@@H]3O[C@@H]([C@@H](CC)C(=O)O)CC[C@@H]3C)[C@@H](C)C[C@H]2C)O[C@@]12CC[C@@](C)([C@H]1CC[C@](O)(CC)[C@H](C)O1)O2", "nM", 27),
    ("C#CCNC(=O)[C@H](CC)[C@H]1CC[C@H](C)[C@H]([C@@H](C)[C@H](O)[C@H](C)C(=O)[C@H](CC)[C@H]2O[C@]3(C=C[C@H](OC(C)=O)[C@]4(CC[C@@](C)([C@H]5CC[C@](O)(CC)[C@H](C)O5)O4)O3)[C@H](C)C[C@@H]2C)O1", "nM", 20900),
    ("CC[C@@H](C(=O)[C@@H](C)[C@@H](O)[C@H](C)[C@@H]1O[C@@H]([C@@H](CC)C(=O)O)CC[C@@H]1C)[C@H]1O[C@]2(C=C[C@H](OC(=O)NC(C)(C)C)[C@]3(CC[C@@](C)([C@H]4CC[C@](O)(CC)[C@H](C)O4)O3)O2)[C@H](C)C[C@@H]1C", "nM", 320),
    ("C#CCOC(=O)[C@H](CC)[C@H]1CC[C@H](C)[C@H]([C@@H](C)[C@H](O)[C@H](C)C(=O)[C@H](CC)[C@H]2O[C@]3(C=C[C@H](O)[C@]4(CC[C@@](C)([C@H]5CC[C@](O)(CC)[C@H](C)O5)O4)O3)[C@H](C)C[C@@H]2C)O1", "nM", 26900),
    ("C#CCNC(=O)[C@H](CC)[C@H]1CC[C@H](C)[C@H]([C@@H](C)[C@H](O)[C@H](C)C(=O)[C@H](CC)[C@H]2O[C@]3(C=C[C@H](O)[C@]4(CC[C@@](C)([C@H]5CC[C@](O)(CC)[C@H](C)O5)O4)O3)[C@H](C)C[C@@H]2C)O1", "nM", 2970),
]

Consider now this further compound.
# input Field: GI50 (Trypanosoma brucei brucei). Entry: CC[C@@H](C(=O)[C@@H](C)[C@@H](O)[C@H](C)[C@@H]1O[C@@H]([C@@H](CC)C(=O)O)CC[C@@H]1C)[C@H]1O[C@]2(C=C[C@H](OC(=O)C34CC5CC(CC(C5)C3)C4)[C@]3(CC[C@@](C)([C@H]4CC[C@](O)(CC)[C@H](C)O4)O3)O2)[C@H](C)C[C@@H]1C
# output 240
